System: LOX IMVI melanoma
Experiment: NCI-60 one-dose screen, 48 h
Conditions: 10 µM unless noted
Description: Growth inhibition of the LOX IMVI human tumor cell line is measured as a screen for anti-cancer activity. Cells are grown in 96 well plates and exposed to the test compound for 48 hours. Compounds are tested at a single concentration, which is 10^-5 M for most compounds. The reported endpoint is percent growth (GI% or GIPRCNT), where numbers from 0 - 100% represent growth inhibition, and numbers from -100% - 0 represent cell death. For example, a value of 40 represents 60% growth inhibition. […]
About 83,000 compounds went through this panel and 20% of them were active in at least one assay; those are over-represented in the sample as a whole. Calls of active or inactive are those of the source. How the source made its calls: active means growth percent below 10; inactive means the rest.
A correct response names exactly one class from active, inactive

Use the examples below as a reference point.
[
  {
    "compound": "O=C(N/N=C/c1ccc(F)cc1)c1[nH]c2ccc(I)cc2c1-c1ccccc1",
    "qualitativeLabel": "inactive"
  },
  {
    "compound": "Cc1ccc2nc(NC(=O)CSC(=S)N3CCN(Cc4ccccc4)CC3)sc2c1",
    "qualitativeLabel": "active"
  },
  {
    "compound": "CCN(c1ccc(C(=O)N2CCN(c3ccccc3)CC2)cc1)S(C)(=O)=O",
    "qualitativeLabel": "inactive"
  },
  {
    "compound": "Cn1cc(C(=O)NCCC(=N)N)cc1NC(=O)CN=C(N)N",
    "qualitativeLabel": "inactive"
  },
  {
    "compound": "CC(C)(C)CC(C)(C)N(CSc1ccc(Cl)cc1)CSc1ccc(Cl)cc1",
    "qualitativeLabel": "active"
  },
  {
    "compound": "CCOC(=O)c1cn2c3c(cc(F)cc3c1=O)C(CC)c1ccccc1C2 (stereo not drawn)",
    "qualitativeLabel": "inactive"
  },
  {
    "compound": "O=C(CCc1nnc2sc(/C=C\\c3ccccc3)nn12)c1nc2ccccc2[nH]1",
    "qualitativeLabel": "inactive"
  },
  {
    "compound": "COc1ccc(-c2nc3sccn3c2/C=C/C(=O)c2cc(OC)c(OC)c(OC)c2)cc1OC",
    "qualitativeLabel": "active"
  },
  {
    "compound": "CCCCNNC(=O)c1ccc(Br)cc1",
    "qualitativeLabel": "inactive"
  },
  {
    "compound": "O=C1CCC(N2Cc3c(C#CCCCNC(=O)c4cc5c(o4)C(=O)c4ccccc4C5=O)cccc3C2=O)C(=O)N1 (stereo not drawn)",
    "qualitativeLabel": "active"
  }
]

*Q* Record lookup: outcome of this test for COc1cc(CNCCCN2C(=O)c3ccc4c5c(ccc(c35)C2=O)C(=O)N(CCCNCc2cc(OC)c(OC)c(OC)c2)C4=O)cc(OC)c1OC ?
*A* active

* * *

Test system: MALME-3M melanoma
Assay: NCI-60 one-dose screen, 48 h
Details: 10 µM unless noted
About 83,000 compounds went through this panel and 20% of them were active in at least one assay; those are over-represented in the sample as a whole. Active and inactive are the calls of the source. Rule for the calls: active = growth percent below 10; inactive = the rest.
A correct response names exactly one class from active, inactive

Use the examples below as a reference point.
[
  {
    "molecule": "O=c1[nH]c(-c2ccncc2)nc2sc3c(c12)CCCCCC3",
    "qualitativeLabel": "inactive"
  },
  {
    "molecule": "CN(C)C(=S)SCN1C(=O)c2ccc([N+](=O)[O-])cc2S1(=O)=O",
    "qualitativeLabel": "inactive"
  },
  {
    "molecule": "Cc1nc2cc(Nc3nc(NCCO)nc(Nc4ccc(F)cc4)n3)ccc2n1Cc1ccccc1",
    "qualitativeLabel": "inactive"
  },
  {
    "molecule": "COc1ccc(/C=C/C(=O)N2CCC(O)CC2)cc1OC1CCCC1",
    "qualitativeLabel": "inactive"
  }
]

*Q* Record lookup: outcome of this test for c1ccc(-c2n(Cc3ccc4ccccc4n3)c3ccccc3[n+]2Cc2ccc3ccccc3n2)cc1 ?
*A* active

*Q* Record lookup: outcome of this test for O=C1NC(=O)C2(CCCC2C(=O)O)N1 (configuration not stated) ?
*A* inactive

*Q* Record lookup: outcome of this test for CCOC(=O)C(CC(c1ccccc1)N1CCCCC1)[N+](=O)[O-] (configuration not stated) ?
*A* inactive

*Q* Record lookup: outcome of this test for COc1c(O)c2c3c(c1OC)-c1ccccc1CC3N(S(=O)(=O)c1ccc(C)cc1)CC2 (configuration not stated) ?
*A* inactive

*Q* Record lookup: outcome of this test for Cc1ccc(S(=O)(=O)c2ccc3[nH]c(=O)[nH]c(=O)c3c2)cc1 ?
*A* inactive

*Q* Record lookup: outcome of this test for COc1ccc(/C=C2\Oc3cc(C)c(Cl)cc3C2=O)cc1OC ?
*A* inactive

*Q* Record lookup: outcome of this test for CCOc1ccc(-c2cnnn2-c2nonc2-n2cccc2)cc1 ?
*A* inactive

*Q* Record lookup: outcome of this test for O=C(CC(O)c1ccccc1)Nc1ccccn1 (configuration not stated) ?
*A* inactive

*Q* Record lookup: outcome of this test for COc1ccc(/C=N/NC(=O)c2cnn(CC(O)Cc3ccccc3)c2N)cc1OC1CCCC1 (configuration not stated) ?
*A* inactive

*Q* Record lookup: outcome of this test for CN([N-]C(=O)CC(=O)[N-]N(C)C(=S)c1ccccc1)C(=S)c1ccccc1.[Cu+2] ?
*A* active

FYI, the data here is from PubChem BioAssay (NCI).
